assayDetails: Solubility of amorphous substance in solvent systems (supersaturated solution, oscillated 24 h at room temperature, HPLC)
Type: physicochemical
assayConditions: dehydrated alcohol-propylene glycol-water solvent mixture, aqueous with cosolvent or surfactant or cyclodextrin, thermodynamic from solid, Dehydrated alcohol 30%-propylene glycol 10%-water 60% (w/w); read-out: Solubility
measurementName: solubility at 24 h (µg/mL)
I only need the number, in µg/mL, no unit after it.

Prompt line: Given the compound Cc1ncsc1-c1ccc(CNC(=O)[C@@H]2C[C@@H](O)CN2C(=O)[C@@H](NC(=O)COCCCCOc2ccc(-c3ccc(N4C(=S)N(c5ccc(C#N)c(C(F)(F)F)c5F)C(=O)C4(C)C)cn3)cc2)C(C)(C)C)cc1 , what is its reported solubility at 24 h?
Response line: 200

----------
assayDetails: Solubility of amorphous substance in solvent systems (supersaturated solution, oscillated 24 h at room temperature, HPLC)
Assay type: physicochemical
assayConditions: dehydrated alcohol-propylene glycol-water solvent mixture, aqueous with cosolvent or surfactant or cyclodextrin, thermodynamic from solid, Dehydrated alcohol 40%-propylene glycol 20%-water 40% (w/w); read-out: Solubility
measurementName: solubility at 24 h (mg/mL)
I only need the number, in mg/mL, no unit after it.

Prompt line: Given the compound Cc1ncsc1-c1ccc(CNC(=O)[C@@H]2C[C@@H](O)CN2C(=O)[C@@H](NC(=O)COCCCCOc2ccc(-c3ccc(N4C(=S)N(c5ccc(C#N)c(C(F)(F)F)c5F)C(=O)C4(C)C)cn3)cc2)C(C)(C)C)cc1 , what is its reported solubility at 24 h?
Response line: 19.5

----------
assayDetails: Solubility of amorphous substance in solvent systems (supersaturated solution, oscillated 24 h at room temperature, HPLC)
Format: physicochemical
assayConditions: dehydrated alcohol-propylene glycol-water solvent mixture, organic solvent or mixture, thermodynamic from solid, Dehydrated alcohol 50%-propylene glycol 50%-water 00% (w/w); read-out: Solubility
measurementName: solubility at 24 h

Prompt line: Given the molecule Cc1ncsc1-c1ccc(CNC(=O)[C@@H]2C[C@@H](O)CN2C(=O)[C@@H](NC(=O)COCCCCOc2ccc(-c3ccc(N4C(=S)N(c5ccc(C#N)c(C(F)(F)F)c5F)C(=O)C4(C)C)cn3)cc2)C(C)(C)C)cc1 , what is its reported solubility at 24 h?
Response line: > 96 mg/mL

----------
assayDetails: Solubility of amorphous substance in solvent systems (supersaturated solution, oscillated 24 h at room temperature, HPLC)
Format: physicochemical
assayConditions: solvent mixture, aqueous with cosolvent or surfactant or cyclodextrin, thermodynamic from solid, Dehydrated alcohol 30%-glycerin 50%-water 20% (w/w); read-out: Solubility
measurementName: solubility at 24 h (µg/mL)
I only need the number, in µg/mL, no unit after it.

Prompt line: Given the compound Cc1ncsc1-c1ccc(CNC(=O)[C@@H]2C[C@@H](O)CN2C(=O)[C@@H](NC(=O)COCCCCOc2ccc(-c3ccc(N4C(=S)N(c5ccc(C#N)c(C(F)(F)F)c5F)C(=O)C4(C)C)cn3)cc2)C(C)(C)C)cc1 , what is its reported solubility at 24 h?
Response line: 4080

----------
assayDetails: Solubility of amorphous substance in solvent systems (supersaturated solution, oscillated 24 h at room temperature, HPLC)
Type: physicochemical
assayConditions: solvent mixture, aqueous with cosolvent or surfactant or cyclodextrin, thermodynamic from solid, Dehydrated alcohol 30%-glycerin 20%-water 50% (w/w); read-out: Solubility
measurementName: solubility at 24 h
State the value, then name its unit.

Prompt line: Given the molecule Cc1ncsc1-c1ccc(CNC(=O)[C@@H]2C[C@@H](O)CN2C(=O)[C@@H](NC(=O)COCCCCOc2ccc(-c3ccc(N4C(=S)N(c5ccc(C#N)c(C(F)(F)F)c5F)C(=O)C4(C)C)cn3)cc2)C(C)(C)C)cc1 , what is its reported solubility at 24 h?
Response line: 140 µg/mL

----------
assayDetails: Solubility of amorphous substance in solvent systems (supersaturated solution, oscillated 24 h at room temperature, HPLC)
Format: physicochemical
assayConditions: solvent mixture, aqueous with cosolvent or surfactant or cyclodextrin, thermodynamic from solid, Dehydrated alcohol 20%-glycerin 30%-water 50% (w/w); read-out: Solubility
measurementName: solubility at 24 h

Prompt line: Given the molecule Cc1ncsc1-c1ccc(CNC(=O)[C@@H]2C[C@@H](O)CN2C(=O)[C@@H](NC(=O)COCCCCOc2ccc(-c3ccc(N4C(=S)N(c5ccc(C#N)c(C(F)(F)F)c5F)C(=O)C4(C)C)cn3)cc2)C(C)(C)C)cc1 , what is its reported solubility at 24 h?
Response line: < 100 µg/mL

----------
assayDetails: Solubility of amorphous substance in solvent systems (supersaturated solution, oscillated 24 h at room temperature, HPLC)
Type: physicochemical
assayConditions: solvent mixture, aqueous with cosolvent or surfactant or cyclodextrin, thermodynamic from solid, Dehydrated alcohol 20%-glycerin 40%-water 40% (w/w); read-out: Solubility
measurementName: solubility at 24 h

Prompt line: Given the molecule Cc1ncsc1-c1ccc(CNC(=O)[C@@H]2C[C@@H](O)CN2C(=O)[C@@H](NC(=O)COCCCCOc2ccc(-c3ccc(N4C(=S)N(c5ccc(C#N)c(C(F)(F)F)c5F)C(=O)C4(C)C)cn3)cc2)C(C)(C)C)cc1 , what is its reported solubility at 24 h?
Response line: < 100 µg/mL

----------
assayDetails: Solubility of amorphous substance in solvent systems (supersaturated solution, oscillated 24 h at room temperature, HPLC)
Assay type: physicochemical
assayConditions: solvent mixture, aqueous with cosolvent or surfactant or cyclodextrin, thermodynamic from solid, Dehydrated alcohol 10%-PEG400 40%-water 50% (w/w); read-out: Solubility
measurementName: solubility at 24 h (µg/mL)
I only need the number, in µg/mL, no unit after it.

Prompt line: Given the molecule Cc1ncsc1-c1ccc(CNC(=O)[C@@H]2C[C@@H](O)CN2C(=O)[C@@H](NC(=O)COCCCCOc2ccc(-c3ccc(N4C(=S)N(c5ccc(C#N)c(C(F)(F)F)c5F)C(=O)C4(C)C)cn3)cc2)C(C)(C)C)cc1 , what is its reported solubility at 24 h?
Response line: 280

----------
assayDetails: Solubility of amorphous substance in solvent systems (supersaturated solution, oscillated 24 h at room temperature, HPLC)
Format: physicochemical
assayConditions: dehydrated alcohol-PEG400-water solvent mixture, aqueous with cosolvent or surfactant or cyclodextrin, thermodynamic from solid, Dehydrated alcohol 35%-PEG400 35%-water 30% (w/w); read-out: Solubility
measurementName: solubility at 24 h (mg/mL)
I only need the number, in mg/mL, no unit after it.

Prompt line: Given the compound Cc1ncsc1-c1ccc(CNC(=O)[C@@H]2C[C@@H](O)CN2C(=O)[C@@H](NC(=O)COCCCCOc2ccc(-c3ccc(N4C(=S)N(c5ccc(C#N)c(C(F)(F)F)c5F)C(=O)C4(C)C)cn3)cc2)C(C)(C)C)cc1 , what is its reported solubility at 24 h?
Response line: 117

----------
assayDetails: Solubility of amorphous substance in solvent systems (supersaturated solution, oscillated 24 h at room temperature, HPLC)
Format: physicochemical
assayConditions: dehydrated alcohol 90%: water 10% (w/w), organic solvent or mixture, thermodynamic from solid, Dehydrated alcohol 90%: water 10% (w/w); read-out: 24 h solubility
measurementName: solubility at 24 h

Prompt line: Given the compound Cc1ncsc1-c1ccc(CNC(=O)[C@@H]2C[C@@H](O)CN2C(=O)[C@@H](NC(=O)COCCCCOc2ccc(-c3ccc(N4C(=S)N(c5ccc(C#N)c(C(F)(F)F)c5F)C(=O)C4(C)C)cn3)cc2)C(C)(C)C)cc1 , what is its reported solubility at 24 h?
Response line: > 77.7 mg/mL

----------
assayDetails: Solubility of amorphous substance in solvent systems (supersaturated solution, oscillated 24 h at room temperature, HPLC)
Assay type: physicochemical
assayConditions: dehydrated alcohol-propylene glycol-water solvent mixture, aqueous with cosolvent or surfactant or cyclodextrin, thermodynamic from solid, Dehydrated alcohol 10%-propylene glycol 50%-water 40% (w/w); read-out: Solubility
measurementName: solubility at 24 h

Prompt line: Given the compound Cc1ncsc1-c1ccc(CNC(=O)[C@@H]2C[C@@H](O)CN2C(=O)[C@@H](NC(=O)COCCCCOc2ccc(-c3ccc(N4C(=S)N(c5ccc(C#N)c(C(F)(F)F)c5F)C(=O)C4(C)C)cn3)cc2)C(C)(C)C)cc1 , what is its reported solubility at 24 h?
Response line: 1490 µg/mL

----------
assayDetails: Solubility of amorphous substance in solvent systems (supersaturated solution, oscillated 24 h at room temperature, HPLC)
Type: physicochemical
assayConditions: dehydrated alcohol-propylene glycol-water solvent mixture, aqueous with cosolvent or surfactant or cyclodextrin, thermodynamic from solid, Dehydrated alcohol 35%-propylene glycol 40%-water 25% (w/w); read-out: Solubility
measurementName: solubility at 24 h (mg/mL)
I only need the number, in mg/mL, no unit after it.

Prompt line: Given the molecule Cc1ncsc1-c1ccc(CNC(=O)[C@@H]2C[C@@H](O)CN2C(=O)[C@@H](NC(=O)COCCCCOc2ccc(-c3ccc(N4C(=S)N(c5ccc(C#N)c(C(F)(F)F)c5F)C(=O)C4(C)C)cn3)cc2)C(C)(C)C)cc1 , what is its reported solubility at 24 h?
Response line: 62.7

----------
assayDetails: Solubility of amorphous substance in solvent systems (supersaturated solution, oscillated 24 h at room temperature, HPLC)
Format: physicochemical
assayConditions: dehydrated alcohol-PEG400-water solvent mixture, aqueous with cosolvent or surfactant or cyclodextrin, thermodynamic from solid, Dehydrated alcohol 30%-PEG400 40%-water 30% (w/w); read-out: Solubility
measurementName: solubility at 24 h (mg/mL)
I only need the number, in mg/mL, no unit after it.

Prompt line: Given the compound Cc1ncsc1-c1ccc(CNC(=O)[C@@H]2C[C@@H](O)CN2C(=O)[C@@H](NC(=O)COCCCCOc2ccc(-c3ccc(N4C(=S)N(c5ccc(C#N)c(C(F)(F)F)c5F)C(=O)C4(C)C)cn3)cc2)C(C)(C)C)cc1 , what is its reported solubility at 24 h?
Response line: 89.2
